Biological target: human Kv7.2 (Homo sapiens, UniProt O43526)
Sequence (O43526 whole entry): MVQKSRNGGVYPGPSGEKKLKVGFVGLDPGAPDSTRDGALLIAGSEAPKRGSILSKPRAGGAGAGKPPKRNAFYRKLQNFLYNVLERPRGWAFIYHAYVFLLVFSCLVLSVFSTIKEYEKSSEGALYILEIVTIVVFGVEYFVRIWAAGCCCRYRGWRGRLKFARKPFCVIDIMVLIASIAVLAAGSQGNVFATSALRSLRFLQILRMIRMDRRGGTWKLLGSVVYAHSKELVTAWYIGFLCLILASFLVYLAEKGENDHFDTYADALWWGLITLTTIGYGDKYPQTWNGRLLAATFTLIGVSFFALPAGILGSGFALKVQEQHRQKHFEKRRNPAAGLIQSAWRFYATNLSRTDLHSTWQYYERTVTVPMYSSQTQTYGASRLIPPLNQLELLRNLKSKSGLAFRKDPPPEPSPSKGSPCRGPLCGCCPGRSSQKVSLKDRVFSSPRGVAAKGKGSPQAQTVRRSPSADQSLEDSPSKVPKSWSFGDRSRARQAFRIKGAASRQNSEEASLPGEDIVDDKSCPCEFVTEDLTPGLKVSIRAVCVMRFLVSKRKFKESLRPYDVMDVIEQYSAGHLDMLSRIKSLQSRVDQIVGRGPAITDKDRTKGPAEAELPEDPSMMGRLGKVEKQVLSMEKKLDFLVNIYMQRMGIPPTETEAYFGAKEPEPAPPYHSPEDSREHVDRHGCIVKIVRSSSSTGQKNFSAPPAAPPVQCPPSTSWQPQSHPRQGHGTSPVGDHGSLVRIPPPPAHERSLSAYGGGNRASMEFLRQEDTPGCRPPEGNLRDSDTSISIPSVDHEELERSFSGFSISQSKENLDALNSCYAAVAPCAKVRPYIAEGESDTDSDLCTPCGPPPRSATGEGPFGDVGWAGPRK
Assay: activation (potentiation) of Kv7.2 current, SyncroPatch 384 electrophysiology in CHO cells stably expressing human Kv7.2
Conditions: human Kv7.2 in CHO cells; in presence of 5.6 μM zinc pyrithione; % activation relative to 30 μM ML-213
Protocol: The potency of Kv7 potentiators was determined using the SyncroPatch 384 (Nanion) high throughput electrophysiology platform. […] At the beginning of each assay, 20 μl of cell suspension was dispensed into each well of a multi-hole 384-well SyncroPatch chip by the onboard pipettor. […] Human Kv7.2, Kv7.4 or Kv7.5/7.3 channels were evaluated using a voltage protocol in which cells were voltage-clamped at a holding potential of −60 mV. […] Potassium currents were measured from the −90 mV repolarizing step. […]
Endpoint: EC50 (µM)

[A] COC(C)(CNC(=O)NC1CC=CC1)c1cccc(Cl)c1 (stereo not drawn) [Example 30]
[B] CO[C@@](C)(CNC(=O)CCC(O)C(C)(C)C)c1cccc(Cl)c1 (stereo partly drawn) [Example 69]
[C] CC#C[C@@H]1C[C@@H]1C(=O)NC[C@@]1(c2cccc(C#N)c2)CCO1 (mixture of isomers) [Example 137]
[D] O=C(NCC1CCCC1)NCC1(c2cccc(Cl)c2)CCC(=O)O1 (stereo not drawn) [Example 75]
Ask: In this exercise, place the 4 compounds in ascending sequence of their recorded EC50. Would you mind listing the labels in the order asked for?
Result: D, C, A, B
(D: 0.29 µM, C: 1.11 µM, A: 3.27 µM, B: 6.29 µM)

[1] N#Cc1cccc([C@]2(CNC(=O)[C@H]3C[C@@H]3c3ccccn3)CCO2)c1 (mixture of isomers) [Example 124]
[2] O=C(NCC1(c2cccc(OC(F)F)n2)CCO1)C1CC12CCOCC2 (stereo not drawn) [Example 115]
Ask: Select one. Lower EC50: 1 or 2 Answer = label.
Result: 2

----------
molecular target: human Kv7.2 (Homo sapiens, UniProt O43526); test: activation (potentiation) of Kv7.2 current, SyncroPatch 384 electrophysiology in CHO cells stably expressing human Kv7.2; conditions: human Kv7.2 in CHO cells; in presence of 5.6 μM zinc pyrithione; % activation relative to 30 μM ML-213
Endpoint: EC50 (nM)

Please review the entries below; each comes with its answer.
In [3]: df
Out[3]:
                                   compound  experimental_result
0  N#Cc1cccc([C@]2(CNC(=O)C3C(F)(F)C34CCC4)CCO2)c1 (some centres unmarked)                 8540
1  COC(C)(CNC(=O)[C@H]1C[C@@H]1c1ccccc1)c1ccnc(Cl)c1 (mixture of isomers)                  940
2     O=C(NC/C(=C/CO)c1cccc(Cl)c1)NCC1CCCC1                 6790
3  N#Cc1cccc([C@]2(CNC(=O)CC3CC4(CCC4)C3)CCO2)c1                  610

[I] COc1cc(C(C)(CNC(=O)[C@H]2C[C@@H]2c2ccccc2)OC)ccn1 (mixture of isomers)
[II] COC(C)(CNC(=O)C1CC1c1ccccc1F)c1cccc(Cl)c1 (centres unmarked)
[III] N#Cc1cccc([C@@]2(CNC(=O)[C@H]3C[C@@H]3c3ccccc3)CCO2)c1
[IV] COC(C)(CNC(=O)NCc1cccc(C)c1)c1cccc(Cl)c1 (centres unmarked)
Ask: Reorder the items by EC50, least to greatest. Answer with the labels in sequence, matching the requested order.
Result: II, III, IV, I
(II: 110 nM, III: 790 nM, IV: 1430 nM, I: 9420 nM)

----------
biological target: human Kv7.2 (Homo sapiens); test: activation (potentiation) of Kv7.2 current, SyncroPatch 384 electrophysiology in CHO cells stably expressing human Kv7.2; settings: human Kv7.2 in CHO cells; in presence of 5.6 μM zinc pyrithione; % activation relative to 30 μM ML-213
pEC50: −log10 of the molar value.
Endpoint: pEC50

[A] O=C(NCC1(c2cccc(OC(F)F)n2)CCO1)[C@H]1C[C@@H]1c1ccccc1 (stereo partly drawn)
[B] N#CCO[C@H](CNC(=O)[C@H]1C[C@@H]1c1ccccc1)c1cccc(Cl)c1
Ask: // which entry has the larger pEC50 value, A or B ? Your answer should be the label attached to the chosen record.
Result: A
(A: 6.64, B: 6.19)

[1] CO[C@@](C)(CNC(=O)NC1CCCC1)c1cccc(Cl)c1
[2] COC(C)(CNC(=O)/C=C/c1ccccc1F)c1cccc(Cl)c1 (stereo not drawn)
Ask: Compare the recorded pEC50 of 1 and 2 ; state which is larger. Pick one; state its label.
Result: 1
(1: 5.54, 2: 5.12)

----------
biological target: human Kv7.2 (Homo sapiens); assay: activation (potentiation) of Kv7.2 current, SyncroPatch 384 electrophysiology in CHO cells stably expressing human Kv7.2; conditions: human Kv7.2 in CHO cells; in presence of 5.6 μM zinc pyrithione; % activation relative to 30 μM ML-213
Endpoint: EC50 (nM)

Solved entries:
>>> df
                                   compound  experimental_result
0  N#Cc1cccc([C@]2(CNC(=O)[C@H]3C[C@@H]3C3CCCC3)CCO2)c1                   90
1  O=C(NCC(OC1CC1)c1cccc(Cl)c1)NC1CCCC1 (stereo not drawn)                 4580

[I] O=C(NCC1(c2ccnc(OC(F)F)c2)CCO1)[C@H]1C[C@@H]1C(F)(F)F (stereo partly drawn)
[II] COC(C)(CNC(=O)NCC1CCCC1)c1cccc(Cl)c1 (single isomer, unassigned) [Example 71]
[III] N#Cc1cccc([C@@]2(CNC(=O)C3CC4CCC3CC4)CCO2)c1 (stereo partly drawn)
[IV] O=C(NCC1(c2cccc(Cl)c2)CCO1)C1CC2(CCC2)C1 (stereo not drawn)
Ask: Rank descending by EC50. Returns: the labels arranged in the requested order.
Result: III, I, IV, II
(III: 6650 nM, I: 4240 nM, IV: 2750 nM, II: 530 nM)

[A] COC(C)(CNC(=O)Nc1cccc(OC(F)(F)F)c1)c1cccc(Cl)c1 (stereo not drawn)
[B] COC(C)(CNC(=O)NCC1CCCC1)c1cccc(Cl)c1 (stereo not drawn) [Example 21]
[C] COC(C)(CNC(=O)NCC1CC1)c1cccc(Cl)c1 (stereo not drawn)
Ask: Put the compounds in ascending order of EC50. The labels, placed in the requested order, form the answer.
Result: B, A, C
(B: 550 nM, A: 5690 nM, C: 8200 nM)

[I] COc1cccc(NC(=O)NCC2(c3cccc(C)c3)OCCO2)c1
[II] COc1cccc(NC(=O)NCC2(c3cccc(Cl)c3)CCO2)c1 (stereo not drawn)
Ask: Quick check, higher EC50 between I and II ? State your choice using its label.
Result: I

----------
target: human Kv7.2 (Homo sapiens); assay: activation (potentiation) of Kv7.2 current, SyncroPatch 384 electrophysiology in CHO cells stably expressing human Kv7.2; details: human Kv7.2 in CHO cells; in presence of 5.6 μM zinc pyrithione; % activation relative to 30 μM ML-213
Endpoint: EC50 (nM)

>>> df
                                   compound  result_unit  experimental_result
0  O=C(NCC1(c2cccc(Cl)c2)COC1)[C@H]1C[C@@H]1c1ccccc1 [Example 68]           nM                  200
1  O=C(CC1CCCCC1)NCC1(c2ccnc(OC(F)F)c2)CCO1 (stereo not drawn) [Example 117]           nM                 4330
2  CC(C)(C)O[C@H]1C[C@@H]1C(=O)NC[C@@]1(c2cccc(C#N)c2)CCO1 (mixture of isomers) [Example 114]           nM                 7520
3  N#Cc1cccc(C2(CNC(=O)CC3CCCCC3)COC2)c1 [Example 89]           nM                 2790
4  CC(C)(C)[C@@H]1C[C@H]1C(=O)NC[C@@]1(c2cccc(C#N)c2)CCO1 (mixture of isomers) [Example 110]           nM                  490

[a] N#Cc1cccc([C@]2(CNC(=O)CC34CCC(CC3)C4)CCO2)c1 [Example 109]
[b] O=C(NCc1cccc(Cl)c1)NCC1(c2cccc(Cl)c2)CCO1 (stereo not drawn) [Example 62]
[c] O=C(NCC(CO)c1cccc(Cl)c1)[C@H]1C[C@@H]1c1ccccc1 (stereo partly drawn) [Example 74]
[d] O=C(NCC1(c2ccnc(OC(F)F)c2)CCO1)C1CC12CCC(F)(F)CC2 (stereo not drawn) [Example 118]
Ask: Place the items in sequence of falling EC50. # respond with the labels, arranged in the requested order
Result: d, c, a, b
(d: 5520 nM, c: 3100 nM, a: 710 nM, b: 420 nM)
